From: patent US20240101708A1

Target: T1, recombinant human ZNRF3 extracellular domain (human, UniProt Q9ULT6 56-219)
T1 construct: extracellular domain; also called huZNRF3; human ZNRF3 ECD
T1 sequence (looked up): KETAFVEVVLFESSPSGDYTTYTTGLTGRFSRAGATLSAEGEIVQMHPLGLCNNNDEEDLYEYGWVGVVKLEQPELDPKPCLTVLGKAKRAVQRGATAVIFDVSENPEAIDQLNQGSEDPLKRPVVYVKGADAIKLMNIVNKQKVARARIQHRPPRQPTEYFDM
Assay: SPR Biacore 8K; antibody captured on Protein A; ZNRF3 ECD analyte; 25 C
Endpoint label: pKd
Remember the convention: pKd equals -log10 of concentration in molar.

| Binder | pKd |
| --- | --- |
| ZNRF3-300 (antibody, V domains shown, Rat clone; VH/VL only) VH: EVQLVESGGGLVQPERSMKLSCAASGFTFSNYGMAWVRQAPTKGLEWVATINSDGSGTYYRGSVKGRFTISRDNARNTLYLEMNSLRSDDTATYYCTRGRILRIITYFDYWGQGVMVTVSS VL: DIQMTQSPASLSASVGETVSIECLASEDIANDLAWYQQKSGKSPQVLIYAASRVQDGVPSRFSGSGSGTRYSLRISDMQPEDVADYFCQQSYSFPLTFGSGTKLEIK | 9.62 |
| ZNRF3-219 (antibody, V domains shown, Rat clone; VH/VL only) VH: EVQLVESGGGLVQPGRSLKVSCAASGFTFSTFAMAWVRQAPKKGLEWVATITPGGSNTYYPDSVKGRFTISRDNAKSTLYLQMDSLRSEDTANYYCAKCGYPGITSFDYWGQGVMVTVSS VL: DIQMTQSPSFLSASVGDRVSINCKASQNIGKYLNWYQQELGEAPKRLIYNTNNLQTGIPSRFSGSGSGTDYTLTISGLQPEDFATYFCLQHNGFPLTFGSGTKLEIK | 8.72 |

[in] // returns reported pKd for input ZNRF3-244 (antibody, V domains shown, Rat clone; VH/VL only) VH: EVQLVESGGGLVQPGKSLKLSCSASGFTFSSYGMHWIRQTPGKGLDWVAYISTNSGTVYADAVKGRFTISRDNAKNTLYLQLNSLQSEDTAIYYCARGYNYPGAYWGQGTLVTVSS VL: DIQVTQSPSSLLASLGERVTITCQTSQSISNNLNWYQQKPGQAPMLLIYYATSLQTGMPSRFSGQYSGRSFTLTITSLEPEDIANYFCLQHYNPPYTFGAGTKLELK
[out] 8.16
